# measurement.protocol: Pharmacokinetics of cabozantinib in plasma of freely moving rats with or without liver radiotherapy
# condition.label: Sprague-Dawley, rat, plasma, po, 6 mg/kg, Cmax, rat plasma; 6 mg/kg p.o. q.d. 3 days; RT 2Gy x 3 f'x sequential
parameter: Cmax (ng/mL)
A number alone suffices; assume ng/mL.

Task: Endpoint output: Cmax of COc1cc2nccc(Oc3ccc(NC(=O)C4(C(=O)Nc5ccc(F)cc5)CC4)cc3)c2cc1OC [cabozantinib] . Value?
Result: 1360

* * *

# measurement.protocol: Pharmacokinetics of cabozantinib in plasma of freely moving rats with or without liver radiotherapy
# condition.label: Sprague-Dawley, rat, plasma, po, 6 mg/kg, AUC0-T, rat plasma; 6 mg/kg p.o. q.d. 3 days; RT 2Gy x 3 f'x concurrent
parameter: AUC(0-t)

Task: Endpoint output: AUC(0-t) of COc1cc2nccc(Oc3ccc(NC(=O)C4(C(=O)Nc5ccc(F)cc5)CC4)cc3)c2cc1OC [cabozantinib] . Value?
Result: 5100 ng·h/mL

* * *

# measurement.protocol: Pharmacokinetics of cabozantinib in plasma of freely moving rats with or without liver radiotherapy
# condition.label: Sprague-Dawley, rat, plasma, po, 6 mg/kg, Cmax, rat plasma; 6 mg/kg p.o. q.d. 3 days; RT 9Gy x 3 f'x sequential
parameter: Cmax (ng/mL)
A number alone suffices; assume ng/mL.

Task: Endpoint output: Cmax of COc1cc2nccc(Oc3ccc(NC(=O)C4(C(=O)Nc5ccc(F)cc5)CC4)cc3)c2cc1OC [cabozantinib] . Value?
Result: 1350

* * *

# measurement.protocol: Pharmacokinetics of cabozantinib in plasma of freely moving rats with or without liver radiotherapy
# condition.label: Sprague-Dawley, rat, plasma, po, 6 mg/kg, MRT, rat plasma; 6 mg/kg p.o. q.d. 3 days; RT 9Gy x 3 f'x concurrent
parameter: MRT (h)
A number alone suffices; assume h.

Task: Endpoint output: MRT of COc1cc2nccc(Oc3ccc(NC(=O)C4(C(=O)Nc5ccc(F)cc5)CC4)cc3)c2cc1OC [cabozantinib] . Value?
Result: 11.2

* * *

# measurement.protocol: Pharmacokinetics of cabozantinib in plasma of freely moving rats with or without liver radiotherapy
# condition.label: Sprague-Dawley, rat, plasma, po, 6 mg/kg, Tmax, rat plasma; 6 mg/kg p.o. q.d. 3 days; cabozantinib only (no RT)
parameter: Tmax

Task: Endpoint output: Tmax of COc1cc2nccc(Oc3ccc(NC(=O)C4(C(=O)Nc5ccc(F)cc5)CC4)cc3)c2cc1OC [cabozantinib] . Value?
Result: 2.25 h

* * *

# measurement.protocol: Pharmacokinetics of cabozantinib in plasma of freely moving rats with or without liver radiotherapy
# condition.label: Sprague-Dawley, rat, plasma, po, 6 mg/kg, AUC0-T, rat plasma; 6 mg/kg p.o. q.d. 3 days; cabozantinib only (no RT)
parameter: AUC(0-t) (ng·h/mL)
A number alone suffices; assume ng·h/mL.

Task: Endpoint output: AUC(0-t) of COc1cc2nccc(Oc3ccc(NC(=O)C4(C(=O)Nc5ccc(F)cc5)CC4)cc3)c2cc1OC [cabozantinib] . Value?
Result: 4440

* * *

# measurement.protocol: Pharmacokinetics of cabozantinib in plasma of freely moving rats with or without liver radiotherapy
# condition.label: Sprague-Dawley, rat, plasma, po, 6 mg/kg, MRT, rat plasma; 6 mg/kg p.o. q.d. 3 days; RT 2Gy x 3 f'x sequential
parameter: MRT (h)
A number alone suffices; assume h.

Task: Endpoint output: MRT of COc1cc2nccc(Oc3ccc(NC(=O)C4(C(=O)Nc5ccc(F)cc5)CC4)cc3)c2cc1OC [cabozantinib] . Value?
Result: 9.05

All values here come from paper PMC10056485.
